test: protein stability index of a GFP-peptide fusion (yeast GPS) (PSI 1-4); higher = more stable; sorted into four equal gates, so the index is relative within each strain; settings: san1∆
Measured Parameter: protein stability index

- VMRNEIRITSLQGDLTF [SIR4]: 2.65
- NPHQKDQLIISSSANKL [YML103C/NUP188]: 2.29
- AQQDSTNVRLYSLLLAS [ECM29]: 2.39
- DAGVTFNKEQLNKFKKA [ECM29]: 1.55
- TVPNLPTTMVTNQKDTN [ISW2]: 1.51
- NLDYLFELIELVTPKSF [NUT1]: 3.09
- KKYLKKNQLRDWIRFVS [RPL22A]: 1.2
- LEAVNSMIEKGGDWERR [RPN7]: 2.8
- RLASEPGIISITSLQDS [YMR129W/POM152]: 2.96
- VAIDQDKITLHDEKTLA [SIR4]: 2.26
- KKLNKNKKLIKKLSKKY [RPL1A]: 3.1
- YTAVDTAKLQMRRFILG [RPN14]: 1.55
- NFKSYRGVTKVGFGESN [SMC1]: 2.53
- NNRMGSYDCTGVNELAP [POP1]: 2.74
- YNTNFNLLLRELNVEKL [SRP72]: 2.89
- DLEGRANIFRIHSKSMS [RPT1]: 3.21
- TEAGFFAIRDDRDHINP [RPT4]: 3.12
- NQTNINSLAVRGKDCTV [SCL1]: 3.29
- VDNIVNKYQYSLKQYAG [SRP68]: 2.71
- TPSTETAASVFKELCYE [PRE3]: 2.29
- NSKDHKKITLQLLDTSN [SIN4]: 3.04
- LTYDRLEFATIRKGAND [PRE9]: 2.62
- EQQKGQQTAQTQLEQQR [SNF5]: 3.22
- QKKARTILQHLSEAWRC [PRP8]: 2.28
- NNIKNGTNNISQHGQGN [YDL088C/ASM4]: 3.05
- STLKSFFTNPNKKRPSS [YOR098C/NUP1]: 3.08
- KLHFKDTKPFLNKDSTN [NUT1]: 1.99
- KLITTYISLLKLQGLYE [YDL116W/NUP84]: 1.66
- KRFQVLYPCYFDINRSH [SEC65]: 1.88
- VQKQTRAGQRTRFKAVV [RPS2]: 3.31

====

protein stability index values for the sequences below.
assay: protein stability index of a GFP-peptide fusion (yeast GPS) (PSI 1-4); higher = more stable; sorted into four equal gates, so the index is relative within each strain; details: doa10∆
Measured Parameter: protein stability index

• RNQILVSITDAPKIHIL [YMR129W/POM152] = 1.43
• CYPQFAERDSQGGFYKQ [UBP6] = 3.31
• LIPCKYLNRHADFFVRE [RPN7] = 2.62
• LKTVLHNGRDKIQFHIH [RGR1] = 1.49
• VQGSTLAQLTSKLIPEV [RPS1A] = 2.79
• KKRSHHGKASRQQYYSG [SNF6] = 3.05
• IKKEEGKIDEAADILCE [RPN5] = 3.1
• VSSTIPRETIPFLHLRK [FAS2] = 2.93
• LISIHSRENNSEYMVFG [YJL039C/NUP192] = 3.03
• EANFDLINIDTSIANAF [RPC40] = 2.78
• LEQEYRLILLLNHRNKN [RMP1] = 1.28
• NVGLPILKSLKNRSNRK [YOR098C/NUP1] = 3.07
• IGANIYQSPTIFKIVQS [MED6] = 2.25
• NNSNNNNIIRIQQLISQ [SNF11] = 2.25
